system: UACC-257 melanoma; assay: NCI-60 one-dose screen, 48 h; conditions: 10 µM
The panel holds about 83,000 compounds, 20% with a hit somewhere; the sample as a whole holds those more often. Calls of active or inactive are those of the source. How the source made its calls: active means growth percent below 10; inactive means the rest.
Answer with one of the outcomes 1 (yes) for active, 0 (no) for inactive

Field: outcome | Entry: OCC(O)C(O)C(O)C(/C=N/Nc1ccccc1)=N/Nc1ccccc1 (configuration not stated)
0 (no)

Now the same for `Clc1cc(Cl)c(Cl)nn1`
0 (no)

Now the same for `CCCCCCCCCCSC(=N)N`
0 (no)

Now the same for `Oc1ccc(N=Nc2ccccn2)c(O)c1`
1 (yes)

Now the same for CC(=O)OCC(OC(C)=O)C(OC(C)=O)C(OC(C)=O)C(OC(C)=O)C(/C=N/Nc1ccccc1)=N/Nc1ccccc1 (configuration not stated)
0 (no)

Now the same for `O=C1C=C(O)c2ccccc2C1=O.[Ag]`
0 (no)

Now the same for `O=C(/C=C/c1ccccn1)c1ccccc1`
0 (no)

Now the same for CSC1SCC2C(=O)N(C)C(C(C)C)C(=O)OCC(NC(=O)c3cnc4ccccc4n3)C(=O)NC(C)C(=O)N(C)C1C(=O)N(C)C(C(C)C)C(=O)OCC(NC(=O)c1cnc3ccccc3n1)C(=O)NC(C)C(=O)N2C (configuration not stated)
1 (yes)

Now the same for `CCN1/C(=C/C=C/C=C/c2sc3ccccc3[n+]2CC)Sc2ccccc21`
1 (yes)

Now the same for `O=C1C=CC(=CC=C2C=CN(CCCCCCCCCCCO)C=C2)C=C1`
1 (yes)

Now the same for CS(=O)(=O)OC1CC(n2ccc(=O)[nH]c2=O)OC1COC(c1ccccc1)(c1ccccc1)c1ccccc1 (configuration not stated)
0 (no)

Now the same for CCCCCC(C)c1ccc(O)c(C)c1 (configuration not stated)
0 (no)

Now the same for COC(=O)C1C(O)C(C)C(O)C(C)C=C(C)C2=C3C(=C(C)C(=O)c4c(O)c(c(C)c(OC(C)=O)c43)NC(=O)C(C)=C/C=C\C(C)C(O)C(C)C1O)OCO2 (configuration not stated)
0 (no)

Now the same for `CC[N+](CC)=c1ccc2nc3c(cc(N)c4ccccc43)oc-2c1`
1 (yes)

Now the same for `CC(C)(C)CC(C)(C)c1ccc(OCCO)cc1`
0 (no)

Now the same for OC(CN1CCCC2CCCCC21)c1cc2ccccc2c2ccccc12 (configuration not stated)
0 (no)

Now the same for `COc1ccc(CC(=O)c2ccc(O)cc2O)cc1`
0 (no)

* * *

system: DU-145 prostate; test: NCI-60 one-dose screen, 48 h; conditions: 10 µM unless noted
The panel holds about 83,000 compounds, 20% with a hit somewhere; the sample as a whole holds those more often. Activity calls are given as the source filed them. Rule for the calls: active = growth percent below 10; inactive = the rest.
Answer with one of the outcomes Yes (active), No (inactive)

Field: outcome | Entry: `CC(C)(C)CC(C)(C)c1ccc(OCCO)cc1`
No

Now the same for `CCCCCCCCCCSC(=N)N`
No

Now the same for `CCN1/C(=C/C=C/C=C/c2sc3ccccc3[n+]2CC)Sc2ccccc21`
Yes

Now the same for `CC1=CC(C)=Nc2ccc(Cl)cc2N1`
No

Now the same for COC1OCC(O)C(O)C1O (configuration not stated)
No

Now the same for `Clc1cc(Cl)c(Cl)nn1`
No

Now the same for `Cc1nc(N=C(N)N)nc2ccc3ccccc3c12`
Yes
